Measured Target: T1, human ferroportin (SLC40A1) fused in frame with GFP (human) (UniProt Q9NP59)
T1 sequence (looked up): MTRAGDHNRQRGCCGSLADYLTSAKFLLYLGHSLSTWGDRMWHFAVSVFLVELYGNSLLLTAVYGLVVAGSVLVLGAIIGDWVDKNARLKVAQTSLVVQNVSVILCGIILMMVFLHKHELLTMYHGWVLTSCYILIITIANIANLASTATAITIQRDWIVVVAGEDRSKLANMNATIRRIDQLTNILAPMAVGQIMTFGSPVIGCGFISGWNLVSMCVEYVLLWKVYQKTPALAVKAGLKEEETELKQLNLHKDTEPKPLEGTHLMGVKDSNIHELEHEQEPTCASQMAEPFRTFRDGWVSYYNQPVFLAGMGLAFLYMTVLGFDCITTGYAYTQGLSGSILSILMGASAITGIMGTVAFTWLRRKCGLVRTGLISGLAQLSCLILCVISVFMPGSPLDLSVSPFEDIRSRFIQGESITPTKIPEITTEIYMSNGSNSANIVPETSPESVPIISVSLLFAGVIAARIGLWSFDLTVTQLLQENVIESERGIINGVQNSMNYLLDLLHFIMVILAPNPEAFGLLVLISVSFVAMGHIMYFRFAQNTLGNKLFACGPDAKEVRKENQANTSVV
Method: cell-based or functional assay
Positions of bridges follow the written chain, without caps; N, C: chain ends. Non-standard residues stand in square brackets, D forms with d. Groups on a side chain read outwards from the residue. *: point of attachment. PEG12 = NCCOCCOCCOCCOCCOCCOCCOCCOCCOCCOCCOCCOCCC(=O)O; Phe(4-COOH) = N[C@@H](Cc1ccc(C(=O)O)cc1)C(=O)O; Dip = N[C@H](C(=O)O)C(c1ccccc1)c1ccccc1; Palmitoyl = CCCCCCCCCCCCCCCC(=O)*; Isovaleryl = CC(C)CC(=O)*; Npc = nipecotic acid
Parameter: IC50: FPN internalisation (nM)
Express your answer in nM, writing the number without its unit.

Past entries and their recorded results:
> print(dat)
                                     binder  measurement.units  reported.result
1  DTHXPCIKXKC (N-term isovaleric acid; 4 Dpa; 8 (D)Lys; 9 bhPhe; 10 Lys(Ac); C-term NH2) [Seq. No. 326]                 nM             95.7
2  DTHXPCIKFKC (N-term isovaleric acid; 4 Dpa; 8 (D)Lys; 10 Lys(PEG12_Palm); C-term NH2) [Seq. No. 341]                 nM               22

Now examine the next entry.
For reference, reported IC50: FPN internalisation for Isovaleryl-DTH[Dip][Npc]CI[dK][Phe(4-COOH)]K([PEG12-Palmitoyl])KC-NH2 (disulfide 6-12 (inferred)) [Seq. No. 356] stands at 0.1
